# Tested on: GPR17+ cells (newly differentiated oligodendrocytes)
# assaySummary: In vivo OPC differentiation, GPR17+ cells in brain
# conditionSet: Mus musculus, po, 24 h, read-out: GPR17 Fold Induction (Over Vehicle)

- compound: "COc1cccc(Cc2cnc(N3CCN(c4cnn5cc(-c6cnn(C)c6)ccc45)CC3)nc2)c1"
  experimentalSystem: "GPR17+ cells (newly differentiated oligodendrocytes)"
  fold induction at 3 mg/kg: 1.24
- compound: "Cn1cc(-c2ccc3c(N4CCN(c5ncc(C(O)c6ccccn6)cn5)CC4)cnn3c2)cn1 (stereo not shown)"
  experimentalSystem: "GPR17+ cells (newly differentiated oligodendrocytes)"
  fold induction at 3 mg/kg: 10.6
- compound: "CCC(CC)Cc1cnc(N2CCN(c3cnn4cc(-c5cnn(C)c5)ccc34)CC2)nc1"
  experimentalSystem: "GPR17+ cells (newly differentiated oligodendrocytes)"
  fold induction at 3 mg/kg: 1.58
- compound: "[2H]c1c([2H])c(C(OC(=O)N2CCN(c3cnn4cc(-c5cnn(C)c5)ccc34)CC2)C([2H])([2H])[2H])c([2H])c([2H])c1Cl (stereo not shown)"
  experimentalSystem: "GPR17+ cells (newly differentiated oligodendrocytes)"
  fold induction at 3 mg/kg: 6.93
- compound: "Cn1cc(-c2ccc3c(N4CCN(c5ncn(Cc6ccccc6)n5)CC4)cnn3c2)cn1"
  experimentalSystem: "GPR17+ cells (newly differentiated oligodendrocytes)"
  fold induction at 3 mg/kg: 11.5
- compound: "Cn1cc(-c2ccc3c(N4CCN(c5ncc(Cc6ccco6)cn5)CC4)cnn3c2)cn1"
  experimentalSystem: "GPR17+ cells (newly differentiated oligodendrocytes)"
  fold induction at 3 mg/kg: 1
- compound: "CC(C)n1cc(-c2ccc3c(N4CCN(C(=O)OC(C)(C)C)CC4)cnn3c2)cn1"
  experimentalSystem: "GPR17+ cells (newly differentiated oligodendrocytes)"
  fold induction at 3 mg/kg: 1.15

---

# System: Oligodendrocyte progenitor cells (OPCs)
# assaySummary: In vitro OPC differentiation assay, GPR17 expression (immunocytochemistry)
# conditionSet: 3 μM (10× concentration, final 0.3 μM); 72 hours; fold change over vehicle
measurementType: GPR17 Fold Induction (Over Vehicle; 3 μM)

- mol: "OCCn1cc(-c2ccc3c(N4CCN(c5ncc(Cc6ccccc6)cn5)CC4)cnn3c2)cn1"
  result: 8.97
- mol: "Cn1cc(-c2ccc3c(C4=CCN(c5ncc(Cc6ccccc6)cn5)C4)cnn3c2)cn1"
  result: 5.14
- mol: "CC(C)(C)OC(=O)N1CCN(c2cnn3cc(C4CC4)ccc23)CC1"
  result: 0.68
- mol: "Cn1cc(-c2ccc3c(N4CCN(c5ncc(Cc6cccnc6)cn5)CC4)cnn3c2)cn1"
  result: 4.97

---

# experimentalSystem: UniProtKB P16234
# Sequence (P16234 24-1089): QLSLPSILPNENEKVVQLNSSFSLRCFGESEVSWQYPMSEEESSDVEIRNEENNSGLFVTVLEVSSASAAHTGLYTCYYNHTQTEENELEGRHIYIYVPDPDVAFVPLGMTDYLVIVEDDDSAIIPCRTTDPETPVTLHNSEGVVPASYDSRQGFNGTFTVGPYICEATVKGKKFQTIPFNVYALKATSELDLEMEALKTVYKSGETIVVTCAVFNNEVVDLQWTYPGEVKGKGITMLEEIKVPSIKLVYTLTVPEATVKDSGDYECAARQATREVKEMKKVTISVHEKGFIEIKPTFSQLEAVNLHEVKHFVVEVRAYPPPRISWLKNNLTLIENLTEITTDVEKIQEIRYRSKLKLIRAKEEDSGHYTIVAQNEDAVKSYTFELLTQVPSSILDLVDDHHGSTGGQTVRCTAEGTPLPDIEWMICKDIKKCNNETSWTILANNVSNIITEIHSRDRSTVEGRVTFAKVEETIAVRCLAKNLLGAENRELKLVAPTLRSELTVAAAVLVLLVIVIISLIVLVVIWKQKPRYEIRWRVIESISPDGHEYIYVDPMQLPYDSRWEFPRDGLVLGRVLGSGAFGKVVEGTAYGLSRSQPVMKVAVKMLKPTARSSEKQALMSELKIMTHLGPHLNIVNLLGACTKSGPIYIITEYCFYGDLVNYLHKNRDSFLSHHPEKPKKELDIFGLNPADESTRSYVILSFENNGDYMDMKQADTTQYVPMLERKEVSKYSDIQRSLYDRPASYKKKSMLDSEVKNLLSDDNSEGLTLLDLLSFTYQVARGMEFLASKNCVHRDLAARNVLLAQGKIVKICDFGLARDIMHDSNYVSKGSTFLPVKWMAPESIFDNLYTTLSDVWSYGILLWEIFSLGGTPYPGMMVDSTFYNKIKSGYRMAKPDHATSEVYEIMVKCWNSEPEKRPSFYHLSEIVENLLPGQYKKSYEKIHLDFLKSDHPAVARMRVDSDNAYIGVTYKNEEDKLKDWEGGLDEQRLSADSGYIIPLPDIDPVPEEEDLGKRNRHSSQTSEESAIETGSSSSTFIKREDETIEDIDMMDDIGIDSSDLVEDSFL
# assaySummary: PDGFRα kinase enzyme assay (Promega PDGFRα Kinase Enzyme System, ADP-Glo)
# Assay type: biochemical
# conditionSet: 11-point dose response, 10,000 nM to 0.169 nM; 150 uM ATP; BLQ = below limit of quantitation; read-out: IC50 Values on PDGFRα Kinase Inhibition, IC50
pIC50: −log10 of the molar value.

- molecule: "Cn1cc(-c2ccc3c(N4CCN(C(=O)OCC5CCOCC5)CC4)cnn3c2)cn1 [Compound 14]"
  valueQualifier: "="
  pIC50: 5.37
- molecule: "Cn1cc(-c2ccn3c(N4CCCN(c5ncc(Cc6ccccc6)cn5)CC4)cnc3n2)cn1 [Compound 122]"
  valueQualifier: "<"
  pIC50: 5.00
- molecule: "C[C@@H](OC(=O)N1CCN(c2cnn3cc(-c4cnn(C)c4)ccc23)CC1)c1ccncc1 [Compound 289]"
  valueQualifier: "="
  pIC50: 6.37
- molecule: "Cn1cc(-c2ccc3c(N4CCN(c5nc(Cc6ccccc6)co5)CC4)cnn3c2)cn1 [Compound 58]"
  valueQualifier: "="
  pIC50: 6.52
- molecule: "Cn1cc(-c2ccc3c(N4CCN(c5ncc(Cn6ccc7ccccc76)cn5)CC4)cnn3c2)cn1 [Compound 191]"
  valueQualifier: "="
  pIC50: 6.54
- molecule: "CC(c1ccc(F)cc1)c1cnc(N2CCN(c3cnn4cc(-c5cnn(C)c5)ccc34)CC2)nc1 (centres unmarked) [Compound 258]"
  valueQualifier: "="
  pIC50: 6.10
- molecule: "Cn1cc(-c2ccc3c(N4CCN(c5ncccn5)CC4)cnn3c2)cn1 [Compound 10]"
  valueQualifier: "="
  pIC50: 5.21
- molecule: "Cn1cc(-c2ccc3c(N4CCN(c5ncc(C(C)(O)c6ccc(F)cc6)cn5)CC4)cnn3c2)cn1 (centres unmarked) [Compound 46]"
  valueQualifier: "="
  pIC50: 6.91
